# SYSTEM NAME: 17(alpha)-hydroxylase/C17,20-lyase (Rattus norvegicus, UniProt P11715)
# Construct: with rat testis homogenates (2.7 mg protein in 0.5 ml phosphate buffer); from tissue; host or cells: rat testis homogenate
# Sequence (P11715 1-507): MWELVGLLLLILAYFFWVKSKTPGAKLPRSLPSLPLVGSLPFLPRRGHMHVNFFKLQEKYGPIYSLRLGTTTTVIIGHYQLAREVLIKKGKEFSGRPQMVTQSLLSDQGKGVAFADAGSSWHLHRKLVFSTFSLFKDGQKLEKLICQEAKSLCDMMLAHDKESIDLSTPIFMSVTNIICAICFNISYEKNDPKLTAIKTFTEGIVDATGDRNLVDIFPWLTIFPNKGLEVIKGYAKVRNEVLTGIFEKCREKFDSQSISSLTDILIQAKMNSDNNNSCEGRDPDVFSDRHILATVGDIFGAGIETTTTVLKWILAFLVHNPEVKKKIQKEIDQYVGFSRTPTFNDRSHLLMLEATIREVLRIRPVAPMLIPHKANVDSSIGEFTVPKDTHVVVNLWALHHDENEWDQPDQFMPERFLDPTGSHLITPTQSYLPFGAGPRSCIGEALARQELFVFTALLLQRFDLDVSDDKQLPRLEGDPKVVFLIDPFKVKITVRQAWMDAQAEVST
# TEST DESCRIPTION: Hydroxylase/lyase assay, rat testis homogenates, [21-14C]-progesterone side-chain cleavage (Examples 2 and 3, Table 2)
# Format: biochemical
# MEASUREMENT SETUP: [I] = 10 × [S]; progesterone 40 microM, 45 min
MEASURE NAME: % Inhibition of 17(alpha)hydroxylase/lyase, [I] = 10 × [S] (%)
Expressed in %, but write only the number.

Enquiry: Any idea what its % Inhibition of 17(alpha)hydroxylase/lyase, [I] = 10 × [S] is? The molecule is C[C@H](C=O)[C@H]1CC[C@H]2[C@@H]3CCC4=CC(=O)CC[C@]4(C)[C@H]3CC[C@]12C [Compound I-16, 4-pregnen-3-one-20(beta)carboxaldehyde]
Return: 89.95

Enquiry: And CC(O)(C#N)[C@H]1CC[C@H]2[C@@H]3CCC4=CC(=O)CC[C@]4(C)[C@H]3CC[C@]12C (stereo partly shown) [Compound I-25, 20-cyano-20-hydroxy-4-pregnen-3-one] ?
Return: 89.32

Enquiry: Same again, this time with CC(=O)N1CCN(c2ccc(OCC3COC(Cn4ccnc4)(c4ccc(Cl)cc4Cl)O3)cc2)CC1 (stereo not shown) [Ketoconazole, reference compound]
Return: 65.80

These data points were gathered from patent US5264427A.
